Values compiled from PubChem BioAssay.

test: HTB85 osteosarcoma cell growth inhibition, synergistic combos for chromothripsis tumors, BGB or cisplatin IC20 combos (AID 1671453);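 further: cells exposed for 96 hours before readout; 0% = vehicle DMSO and 100% = high DMSO killing control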
conditions_used: HTB85 osteosarcoma cells, drug combinations, measured here: with cisplatin IC20, at 0.5 µM, stronger effect = higher value
inhibition by entry:

compound: CN1CCN(c2c(F)cc3c(=O)c(C(=O)O)cn4c3c2OCN4C)CC1
readout_unit: %
inhibition: -26.4

compound: CN1CCN(c2c(F)cc3c(=O)c(C(=O)O)cn(CCF)c3c2F)CC1
readout_unit: %
inhibition: -12

compound: O=c1[nH]c(=O)n([C@H]2C[C@H](O)[C@@H](CO)O2)cc1Br
readout_unit: %
inhibition: -8.95

compound: O=c1cc[nH]c(=O)[nH]1
readout_unit: %
inhibition: -26.2

compound: CN(N=O)C(=O)NC1C(O)OC(CO)C(O)C1O (configuration not stated)
readout_unit: %
inhibition: -29.4

compound: COC1C(OC(N)=O)C(O)C(Oc2ccc3c(O)c(NC(=O)c4ccc(O)c(CC=C(C)C)c4)c(=O)oc3c2C)OC1(C)C (configuration not stated)
readout_unit: %
inhibition: -30.3

compound: COc1c2ccoc2cc2oc(=O)ccc12
readout_unit: %
inhibition: -7.94

compound: CCOC(=O)Nc1ccc(NCc2ccc(F)cc2)nc1N
readout_unit: %
inhibition: -16.9

compound: CCn1nc(C(=O)O)c(=O)c2cc3c(cc21)OCO3
readout_unit: %
inhibition: -29.8

compound: O=c1c(O)c(-c2ccc(O)c(O)c2)oc2cc(O)ccc12
readout_unit: %
inhibition: 14.6

compound: Cc1ccc2nc(N)[nH]c(=O)c2c1Sc1ccncc1
readout_unit: %
inhibition: -25.9

compound: O=C(CCCCCCC(=O)Nc1ccccc1)NO
readout_unit: %
inhibition: 21.1
